- ASSAYED_TARGET: Substance-K receptor (Homo sapiens) (UniProt P21452)
- Sequence (P21452 whole entry): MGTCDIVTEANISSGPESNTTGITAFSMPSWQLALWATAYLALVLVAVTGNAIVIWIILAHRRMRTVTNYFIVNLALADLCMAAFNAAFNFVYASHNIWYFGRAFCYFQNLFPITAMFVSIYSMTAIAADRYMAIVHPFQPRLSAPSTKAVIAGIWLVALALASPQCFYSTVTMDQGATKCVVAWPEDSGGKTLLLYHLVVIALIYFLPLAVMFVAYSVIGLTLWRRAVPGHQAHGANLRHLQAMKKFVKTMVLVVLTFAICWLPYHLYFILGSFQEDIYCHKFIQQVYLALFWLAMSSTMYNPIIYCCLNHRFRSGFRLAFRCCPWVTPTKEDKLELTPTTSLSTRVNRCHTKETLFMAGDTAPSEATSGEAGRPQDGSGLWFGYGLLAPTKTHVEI
- PROTOCOL_NOTES: Agonist activity at recombinant human NK2R assessed at 10 uM by aequorin reporter based assay relative to agonist
- Format: functional
ENDPOINT_LABEL: Activity

[in] Name the reported Activity value associated with the compound COc1ccc(C(=O)NCCCN(C)Cc2ccccc2)cc1
[out] 0%

[in] Name the reported Activity value associated with the compound CN(CCNC(=O)c1ccc(Cl)cc1)Cc1ccccc1
[out] 1%

[in] Name the reported Activity value associated with the compound CN(CCCNC(=O)c1ccc(Cl)cc1)Cc1ccccc1
[out] 0%

// each compound listed below needs its Activity
1. CN(CCCNC(=O)c1ccc(C(F)(F)F)cc1)Cc1ccccc1
2. CN(CCCNC(=O)c1ccc([N+](=O)[O-])cc1)Cc1ccccc1
3. COc1cccc(C(=O)NCCCN(C)Cc2ccccc2)c1
4. CCCc1ccc(C(=O)NCCCN(C)Cc2ccccc2)cc1
5. CN(CCCNC(=O)c1ccc(Cl)cc1)CCc1ccccc1

[out]
1. 0%
2. 0%
3. 0%
4. 0%
5. 0%

// each compound listed below needs its Activity
1. CN(CCCNC(=O)c1cccc(Br)c1)Cc1ccccc1
2. CN(CCCNC(=O)c1ccc(Br)cc1)Cc1ccccc1
3. CN(CCNC(=O)c1ccc([N+](=O)[O-])cc1)Cc1ccccc1
4. CN(CCNC(=O)c1ccc(C#N)cc1)Cc1ccccc1

[out]
["1%", "0%", "0%", "0%"]

* * *

- ASSAYED_TARGET: Cannabinoid receptor 1 (Homo sapiens) (UniProt P21554)
- Sequence (P21554 whole entry): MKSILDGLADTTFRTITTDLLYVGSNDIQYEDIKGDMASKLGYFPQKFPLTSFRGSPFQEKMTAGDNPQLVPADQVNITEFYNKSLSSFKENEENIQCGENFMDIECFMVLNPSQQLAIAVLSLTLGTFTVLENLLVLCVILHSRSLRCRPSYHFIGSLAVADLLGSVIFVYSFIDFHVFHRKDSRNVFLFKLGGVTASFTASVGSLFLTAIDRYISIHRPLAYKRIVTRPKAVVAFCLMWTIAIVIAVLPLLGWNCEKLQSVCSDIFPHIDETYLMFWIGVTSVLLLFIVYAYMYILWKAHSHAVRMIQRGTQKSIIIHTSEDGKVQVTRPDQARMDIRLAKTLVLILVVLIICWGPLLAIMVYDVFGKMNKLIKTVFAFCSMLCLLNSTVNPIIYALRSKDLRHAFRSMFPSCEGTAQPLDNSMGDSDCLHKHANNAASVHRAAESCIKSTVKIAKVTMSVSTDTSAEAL
- PROTOCOL_NOTES: Antagonist activity at recombinant human CB1 receptor assessed as inhibition of agonist-induced cAMP induction at 10 uM by HTRF assay
- Format: functional
For each entry below, report its inhibition value.
Give bare numbers, in %.

Some solved cases for reference:
[in] Name the reported inhibition value associated with the compound CN(CCCNC(=O)c1cccc(Br)c1)Cc1ccccc1
[out] 3

[in] Name the reported inhibition value associated with the compound CN(CCCNC(=O)c1ccc(Br)cc1)Cc1ccccc1
[out] -2

[in] Name the reported inhibition value associated with the compound CN(CCCNC(=O)c1ccc(Cl)cc1)CCc1ccccc1
[out] 1

[in] Name the reported inhibition value associated with the compound COc1cccc(C(=O)NCCCN(C)Cc2ccccc2)c1
[out] -5

[in] Name the reported inhibition value associated with the compound CN(CCCNC(=O)c1ccc(C(F)(F)F)cc1)Cc1ccccc1
[out] 10

[in] Name the reported inhibition value associated with the compound CN(CCNC(=O)c1ccc(Cl)cc1)Cc1ccccc1
[out] 4

// each compound listed below needs its inhibition
1. CN(CCCNC(=O)c1ccc([N+](=O)[O-])cc1)Cc1ccccc1
2. CN(CCCNC(=O)c1ccc(Cl)cc1)Cc1ccccc1
3. CCCc1ccc(C(=O)NCCCN(C)Cc2ccccc2)cc1
4. COc1ccc(C(=O)NCCCN(C)Cc2ccccc2)cc1

[out]
[5, 5, 4, -8]

* * *

- ASSAYED_TARGET: Type-1 angiotensin II receptor (Homo sapiens)
- Sequence (whole entry): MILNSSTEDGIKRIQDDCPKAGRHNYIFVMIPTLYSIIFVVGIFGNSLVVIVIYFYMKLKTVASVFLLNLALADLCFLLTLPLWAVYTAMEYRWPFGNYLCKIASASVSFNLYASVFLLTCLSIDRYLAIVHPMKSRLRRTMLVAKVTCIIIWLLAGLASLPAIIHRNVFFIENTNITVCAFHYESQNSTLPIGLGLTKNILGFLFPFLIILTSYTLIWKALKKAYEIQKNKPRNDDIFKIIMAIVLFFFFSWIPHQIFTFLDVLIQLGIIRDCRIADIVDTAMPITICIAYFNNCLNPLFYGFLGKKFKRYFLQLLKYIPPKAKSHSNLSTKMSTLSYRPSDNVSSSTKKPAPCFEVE
- PROTOCOL_NOTES: Antagonist activity at recombinant human AT1 receptor assessed as inhibition of agonist-induced […] reporter based assay
- Type: functional
For each entry below, report its inhibition value.
Answers are plain numbers, in %.

Some solved cases for reference:
[in] Name the reported inhibition value associated with the compound COc1ccc(C(=O)NCCCN(C)Cc2ccccc2)cc1
[out] -10

[in] Name the reported inhibition value associated with the compound CCCc1ccc(C(=O)NCCCN(C)Cc2ccccc2)cc1
[out] -6

[in] Name the reported inhibition value associated with the compound CN(CCCNC(=O)c1ccc(C(F)(F)F)cc1)Cc1ccccc1
[out] -2

[in] Name the reported inhibition value associated with the compound CN(CCNC(=O)c1ccc(Cl)cc1)Cc1ccccc1
[out] 21

[in] Name the reported inhibition value associated with the compound CN(CCCNC(=O)c1ccc([N+](=O)[O-])cc1)Cc1ccccc1
[out] 17

Proceed to the following item.
[in] Name the reported inhibition value associated with the compound CN(CCCNC(=O)c1ccc(Cl)cc1)Cc1ccccc1
[out] -3
